Overview of reported T/C across a group of compounds:
- System: CD2F1 mice, L1210 leukemia ip, survival T/C
- test.protocol: NCI In Vivo Anticancer Drug Screen. Data for tumor model L1210 Leukemia (intraperitoneal) in CD2F1 (CDF1) mice
- condition: endpoint: mean survival time; dose: 400.0 mg/kg/injection; schedule: Q01DX009 (ip); vehicle: other; higher = longer survival
Inconclusive results and toxic doses are left out.

[
  {
    "compound": "COc1ccc(/C=C(/C(=O)O)c2ccc(OC)cc2)cc1",
    "T/C": "98 % of control"
  },
  {
    "compound": "CNOCc1ccc(C(=O)NC(C)C)cc1",
    "T/C": "118 % of control"
  },
  {
    "compound": "O=C(O)C(=O)O.[La]",
    "T/C": "96 % of control"
  },
  {
    "compound": "CC1=CC(O)(C2(O)C=C(C)CC(C)(C)C2)CC(C)(C)C1 (centres undefined)",
    "T/C": "88 % of control"
  }
]

----------
Overview of reported T/C across a group of compounds:
- System: CD2F1 mice, L1210 leukemia ip, survival T/C
- test.protocol: NCI In Vivo Anticancer Drug Screen. Data for tumor model L1210 Leukemia (intraperitoneal) in CD2F1 (CDF1) mice
- condition: endpoint: mean survival time; dose: 25.0 mg/kg/injection; schedule: Q04DX003 (ip); vehicle: saline; higher = longer survival
Toxic doses and inconclusive results are not listed.

[
  {
    "compound": "CC(=O)c1ccc(Oc2ccc(/C(C)=N\\N=C(N)N)cc2)cc1",
    "T/C": "100 % of control"
  },
  {
    "compound": "Clc1c(Cl)c(Cl)[c]([Hg][c]2c(Cl)c(Cl)c(Cl)c(Cl)c2Cl)c(Cl)c1Cl",
    "T/C": "103 % of control"
  },
  {
    "compound": "Fc1ccc(N2CCNCC2)cc1",
    "T/C": "103 % of control"
  },
  {
    "compound": "CCOC(=O)Nc1cc(NC(C)CCCN(CC)CC)c2ncc(-c3ccccc3)nc2n1 (stereo unspecified) (tested in a mixture with another compound)",
    "T/C": "98 % of control"
  },
  {
    "compound": "O=c1[nH]cc(F)c(=O)n1C1CCCCO1 (stereo unspecified)",
    "T/C": "102 % of control"
  },
  {
    "compound": "CN=C1C=C(NC)C(F)(F)C1(F)F",
    "T/C": "101 % of control"
  }
]

----------
- Tested on: CD2F1 mice, L1210 leukemia ip, survival T/C
- test.protocol: NCI In Vivo Anticancer Drug Screen. Data for tumor model L1210 Leukemia (intraperitoneal) in CD2F1 (CDF1) mice
- condition: endpoint: mean survival time; dose: 200.0 mg/kg/injection; schedule: Q01DX009 (ip); vehicle: other; higher = longer survival
Inconclusive results and toxic doses are left out.
Overview of reported T/C across a group of molecules:

[
  {
    "molecule": "[N-]=[N+]=NCC(=O)N1c2ccccc2Sc2ccccc21",
    "T/C": "95 % of control"
  },
  {
    "molecule": "OC1(C(Cl)(Cl)Cl)CCCCC1",
    "T/C": "103 % of control"
  },
  {
    "molecule": "CC(O)CNCCNC(=O)CNC(=O)C=[N+]=[N-] (stereo not given)",
    "T/C": "108 % of control"
  },
  {
    "molecule": "COc1ccc(C(=O)c2ncccc2C(=O)O)cc1OC",
    "T/C": "105 % of control"
  },
  {
    "molecule": "O=C(Nc1cc([N+](=O)[O-])ccc1O)C(O)c1ccccc1 (stereo not given)",
    "T/C": "91 % of control"
  },
  {
    "molecule": "CC1CCC(C(C)C)C(OC(=O)N/N=C/N(C)C)C1 (stereo not given)",
    "T/C": "119 % of control"
  },
  {
    "molecule": "O=C(c1ccc(-c2ccccc2)cc1)C1C(c2ccccc2)N1C1CCCCC1 (stereo not given)",
    "T/C": "94 % of control"
  },
  {
    "molecule": "CNOCc1ccc(C(=O)NC(C)C)cc1",
    "T/C": "100 % of control"
  },
  {
    "molecule": "COc1ccc(C(=O)NNC(=O)c2ccc(OC)c(OC)c2)cc1OC",
    "T/C": "107 % of control"
  },
  {
    "molecule": "CCOC(=O)Nc1ccc(F)cc1",
    "T/C": "98 % of control"
  }
]
